These measurements were taken from paper PMC11213902.

assay_details: In vivo oral bioavailability study
Design: species or system SD rats
details: male, rat plasma OBB, 100 mg/kg, n = 6, mean ± SD, read-out: AUC0-24
assay_readout: AUC(0-t) (ng·h/mL)
// note: answer is a bare numeric in ng·h/mL

Bench note: what AUC(0-t) did "COc1ccc2cc3n(c(=O)c2c1OC)CCc1cc2c(cc1-3)OCO2" show? 1260

###

assay_details: In vivo oral bioavailability study
Design: species or system SD rats
details: male, rat plasma OBB, 100 mg/kg, n = 6, mean ± SD
assay_readout: Tmax (h)
// note: answer is a bare numeric in h

Bench note: what Tmax did COc1ccc2cc3n(c(=O)c2c1OC)CCc1cc2c(cc1-3)OCO2 [OBB, 8-Oxyberberine] show? 4.67
